# measurement target: FAAH (Rattus norvegicus)
# Construct: Preparation of Rat Brain Membranes Preparations (FAAH Enzyme Solution); from tissue; host or cells: rat cerebrum (brain membrane preparation)
# Sequence (P97612 whole entry): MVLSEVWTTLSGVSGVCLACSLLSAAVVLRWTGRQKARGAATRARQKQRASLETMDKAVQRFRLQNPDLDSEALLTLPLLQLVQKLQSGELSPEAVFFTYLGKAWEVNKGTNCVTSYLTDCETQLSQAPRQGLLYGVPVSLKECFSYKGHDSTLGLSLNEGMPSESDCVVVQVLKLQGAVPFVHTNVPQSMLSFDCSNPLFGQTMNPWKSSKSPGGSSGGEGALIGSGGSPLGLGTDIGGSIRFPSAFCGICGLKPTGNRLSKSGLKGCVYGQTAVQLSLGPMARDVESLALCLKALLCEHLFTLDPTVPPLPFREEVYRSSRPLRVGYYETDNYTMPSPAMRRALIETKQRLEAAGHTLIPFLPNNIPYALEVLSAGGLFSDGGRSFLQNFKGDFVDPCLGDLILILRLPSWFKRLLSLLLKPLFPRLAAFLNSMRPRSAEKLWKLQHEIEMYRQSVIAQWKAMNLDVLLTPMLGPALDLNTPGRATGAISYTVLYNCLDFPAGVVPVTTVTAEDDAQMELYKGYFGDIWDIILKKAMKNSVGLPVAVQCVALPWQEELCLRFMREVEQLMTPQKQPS
# assay procedure: Determination of FAAH inhibitory activity in rat (rat brain membrane preparations, [3H]-anandamide hydrolysis)
# Format: biochemical
# measurement parameters: rat brain membrane preparations; test substance 0.1 nM to 1 μM; read-out: FAAH Inhibition IC50
reported property: IC50 (nM)

substance smiles: CN(C(=O)n1c(=O)n(C)c2nc(-c3ccccc3)ncc21)c1ccccc1
reported: 63
//
substance smiles: CC(=O)c1cccc(-c2ncc3c(n2)n(C)c(=O)n3C(=O)N2CCCC2)c1
reported: 7
//
substance smiles: Cn1c(=O)n(C(=O)N2CCCC2)c2cnc(Cc3ccc(F)cc3F)nc21
reported: 41
//
substance smiles: COc1cncc(-c2ncc3c(n2)n(C)c(=O)n3C(=O)N2CCCC2)c1
reported: 10

---

# measurement target: FAAH (Rattus norvegicus)
# Construct: Preparation of Rat Brain Membranes Preparations (FAAH Enzyme Solution); from tissue; host or cells: rat cerebrum (brain membrane preparation)
# assay procedure: Determination of FAAH inhibitory activity in rat (rat brain membrane preparations, [3H]-anandamide hydrolysis)
# Format: biochemical
# measurement parameters: rat brain membrane preparations; test substance 0.1 nM to 1 μM; read-out: FAAH Inhibition IC50
IC50 by entry:

compound: CCCc1cccc(CCc2ncc3c(n2)n(C(=O)N(C)C)c(=O)n3C)c1 [compound 518]
IC50: 0.009 µM
--
compound: Cn1c(=O)n(C(=O)N2CCCC2)c2nc(-c3ccncc3)ncc21 [Example 252]
IC50: > 0.1 µM
--
compound: COc1cccc(-c2ncc3c(n2)n(C)c(=O)n3C(=O)N2CCCC2)c1 [Example 173]
IC50: 0.007 µM
--
compound: Cn1c(=O)n(C(=O)N2CCCC2)c2cnc(-c3ccc(OC(F)(F)F)c(F)c3)nc21 [compound 198]
IC50: 0.046 µM
--
compound: COc1cccc(-c2ncc3c(n2)n(C)c(=O)n3C(=O)N2CCN(CC(F)(F)F)CC2)c1 [Example 99]
IC50: 0.007 µM
--
compound: COCc1ncc2c(n1)n(C)c(=O)n2C(=O)N1CC(c2cccc(F)c2)C1 [Example 440]
IC50: 0.021 µM
--
compound: Cn1c(=O)n(C(=O)N2CCCC2)c2nc(Cc3cccc(F)c3)ncc21 [Example 286]
IC50: 0.059 µM
--
compound: Cn1c(=O)n(C(=O)N2CCCC2)c2cnc(CCc3ccccc3)nc21 [Example 11]
IC50: 0.066 µM
--
compound: COc1cccc(-c2ncc3c(n2)n(C)c(=O)n3C(=O)N(C)CCOc2cccc(Cl)c2)c1 [Example 90]
IC50: 0.002 µM
--
compound: COc1cccc(/C=C/c2ncc3c(n2)n(C(=O)N2CCCC2)c(=O)n3C)c1 [Example 247]
IC50: 0.039 µM
--
compound: Cn1c(=O)n(C(=O)N2CCCC2)c2cnc(-c3cccc(F)c3F)nc21 [Example 187]
IC50: 0.007 µM
--
compound: COc1cccc(-c2ncc3c(n2)n(C)c(=O)n3C(=O)N(C)CCc2ccc(N(C)C)cc2)c1 [Example 113]
IC50: 0.003 µM
--
compound: Cn1c(=O)n(C(=O)N2CCCC2)c2cnc(Cc3ccc(-c4ccccc4)cc3)nc21 [Example 265]
IC50: 0.009 µM
--
compound: CCOc1ccc(-c2ncc3c(n2)n(C(=O)N(C)C)c(=O)n3C)cc1 [compound 320]
IC50: 0.113 µM
--
compound: COCc1ncc2c(n1)n(C)c(=O)n2C(=O)N1CC(Oc2ccccc2F)C1 [Example 479]
IC50: 0.101 µM
--
compound: CN(CCc1ccc(Cl)cc1)C(=O)n1c(=O)n(C)c2nc(C3CCCCC3)ncc21 [Example 156]
IC50: 0.01 µM
--
compound: COc1cccc(-c2ncc3c(n2)n(C)c(=O)n3C(=O)N(C)CCc2ccncc2)c1 [Example 115]
IC50: 0.005 µM
